Exercise: state measured IC50 for each of the molecules provided.
Target: Cholinesterase (Equus caballus, UniProt P81908)
Sequence (P81908 whole entry): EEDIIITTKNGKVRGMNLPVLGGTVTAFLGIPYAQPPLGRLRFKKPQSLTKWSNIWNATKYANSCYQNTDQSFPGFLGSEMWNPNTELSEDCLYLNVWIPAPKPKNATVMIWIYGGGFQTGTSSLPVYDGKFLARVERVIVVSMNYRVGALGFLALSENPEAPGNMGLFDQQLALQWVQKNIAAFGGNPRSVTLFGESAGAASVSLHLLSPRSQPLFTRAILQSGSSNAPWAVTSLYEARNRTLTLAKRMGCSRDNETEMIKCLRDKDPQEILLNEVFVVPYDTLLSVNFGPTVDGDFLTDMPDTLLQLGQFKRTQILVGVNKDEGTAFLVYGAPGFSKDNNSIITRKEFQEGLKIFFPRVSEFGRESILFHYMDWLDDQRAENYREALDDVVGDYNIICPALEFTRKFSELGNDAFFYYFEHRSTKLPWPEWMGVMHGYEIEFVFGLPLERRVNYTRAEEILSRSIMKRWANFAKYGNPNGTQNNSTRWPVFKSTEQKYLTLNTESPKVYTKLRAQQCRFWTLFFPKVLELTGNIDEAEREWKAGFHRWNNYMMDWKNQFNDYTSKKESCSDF
Assay: Inhibition of equine serum BuChE using butyrylthiocholine iodide as substrate pretreated for 5 mins followed by substrate addition by Ellman's method

State its IC50 for this molecule: O=C(CCCCC1CCSS1)NCc1cn(CCCOc2ccc3cc(-c4ccccc4)c(=O)oc3c2)nn1 (stereo not drawn) > 100 µM

Indicate its recorded IC50; the molecule in question is O=C(CCCCC1CCSS1)NCc1cn(CCCOc2ccc3ccc(=O)oc3c2)nn1 (stereo not drawn) > 100 µM

Assign IC50 to the following record: O=C(CCCCC1CCSS1)NCc1cn(CCCCCOc2ccc3cc(-c4ccccc4)c(=O)oc3c2)nn1 (stereo not drawn) > 100 µM

Give IC50 for the following molecule: Cc1cc(=O)oc2cc(OCCCCCn3cc(CNC(=O)CCCCC4CCSS4)nn3)ccc12 (stereo not drawn) > 100 µM

Using known records, supply IC50 for O=C(CCCCC1CCSS1)NCc1cn(CCCCCOc2ccc3cc(-c4ccc(Cl)c(Cl)c4)c(=O)oc3c2)nn1 (stereo not drawn) 7.8 µM

Please look at this molecule and report its IC50: O=C(CCCCC1CCSS1)NCc1cn(CCCCCOc2ccc3cc(-c4ccc(Br)cc4)c(=O)oc3c2)nn1 (stereo not drawn) > 100 µM

Provide only the value of recorded IC50 for CCOC(=O)c1cc2ccc(OCCCn3cc(CNC(=O)CCCCC4CCSS4)nn3)cc2oc1=O (stereo not drawn) > 100 µM

For the molecule O=C(CCCCC1CCSS1)NCc1cn(CCCCOc2ccc3ccc(=O)oc3c2)nn1 (stereo not drawn) , report IC50. > 100 µM

Name the recorded IC50 of the molecule listed here: Cc1cc(=O)oc2cc(OCCCn3cc(CNC(=O)CCCCC4CCSS4)nn3)ccc12 (stereo not drawn) > 100 µM

Return IC50 for the following molecule: COc1ccc(-c2cc3ccc(OCCCCCn4cc(CNC(=O)CCCCC5CCSS5)nn4)cc3oc2=O)cc1 (stereo not drawn) > 100 µM

Give the reported IC50 for this molecule. COc1ccc(-c2cc3ccc(OCCCn4cc(CNC(=O)CCCCC5CCSS5)nn4)cc3oc2=O)cc1 (stereo not drawn) > 100 µM

Check the records and state IC50 for COc1ccc(-c2cc3ccc(OCCCCn4cc(CNC(=O)CCCCC5CCSS5)nn4)cc3oc2=O)cc1 (stereo not drawn) > 100 µM

Please report IC50 for the following molecule: O=C(CCCCC1CCSS1)NCc1cn(CCCOc2ccc3cc(-c4ccc(Br)cc4)c(=O)oc3c2)nn1 (stereo not drawn) > 100 µM

State its IC50 for this molecule: O=C(CCCCC1CCSS1)NCc1cn(CCCOc2ccc3cc(-c4ccc(Cl)cc4)c(=O)oc3c2)nn1 (stereo not drawn) > 100 µM

Name the recorded IC50 of the molecule listed here: COc1ccc(-c2cc3ccc(OCCCn4cc(CNC(=O)CCCCC5CCSS5)nn4)cc3oc2=O)cc1OC (stereo not drawn) 49.4 µM

Entry CC(=O)c1cc2ccc(OCCCn3cc(CNC(=O)CCCCC4CCSS4)nn3)cc2oc1=O (stereo not drawn) needs its IC50 filled in; supply it. > 100 µM

# return recorded IC50 for input O=C(CCCCC1CCSS1)NCc1cn(CCCOc2ccc3cc(-c4ccc(Cl)c(Cl)c4)c(=O)oc3c2)nn1 (stereo not drawn) 73.5 µM

Identify measured IC50 associated with O=C(CCCCC1CCSS1)NCc1cn(CCCCOc2ccc3cc(-c4ccc(Br)cc4)c(=O)oc3c2)nn1 (stereo not drawn) > 100 µM

###

System: PC-12
Assay: Neuroprotection against H2O2-induced cell death in rat PC12 cells assessed as cell viability at 5 uM preincubated for 3 hrs followed by H2O2 stimulation measured after 2 hrs by MTT assay (reference value: 25.2 to 41.8%)
Assay type: functional
Conditions: read-out: Activity
quantity.measured: viability at 5 µM (%)
Report the value in % with no unit label.

Please list viability at 5 µM recorded for the molecule Cc1cc(=O)oc2cc(OCCCn3cc(CNC(=O)CCCCC4CCSS4)nn3)ccc12 (stereo not given) 64.6

Identify the reported viability at 5 µM for the following entry. COc1ccc(-c2cc3ccc(OCCCn4cc(CNC(=O)CCCCC5CCSS5)nn4)cc3oc2=O)cc1 (stereo not given) 52.8

In one line, give reported viability at 5 µM of the entry CCOC(=O)c1cc2ccc(OCCCn3cc(CNC(=O)CCCCC4CCSS4)nn3)cc2oc1=O (stereo not given) . 32.4

For COc1ccc(-c2cc3ccc(OCCCCCn4cc(CNC(=O)CCCCC5CCSS5)nn4)cc3oc2=O)cc1 (stereo not given) , write its viability at 5 µM. 41

Report viability at 5 µM for COc1ccc(-c2cc3ccc(OCCCCCn4cc(CNC(=O)CCCCC5CCSS5)nn4)cc3oc2=O)cc1OC (stereo not given) 46.9

Tell me its viability at 5 µM given O=C(CCCCC1CCSS1)NCc1cn(CCCCCOc2ccc3ccc(=O)oc3c2)nn1 (stereo not given) as the entry. 64.5

Annotate the molecule `O=c1c(O)c(-c2ccc(O)c(O)c2)oc2cc(O)cc(O)c12` with its measured viability at 5 µM. 47.3

Supply measured viability at 5 µM of O=C(CCCCC1CCSS1)NCc1cn(CCCCCOc2ccc3cc(-c4ccc(Cl)c(Cl)c4)c(=O)oc3c2)nn1 (stereo not given) in your reply. 54.8

Specify measured viability at 5 µM for COc1ccc(-c2cc3ccc(OCCCCn4cc(CNC(=O)CCCCC5CCSS5)nn4)cc3oc2=O)cc1 (stereo not given) . 44.9

Report measured viability at 5 µM; entry is COc1ccc(-c2cc3ccc(OCCCn4cc(CNC(=O)CCCCC5CCSS5)nn4)cc3oc2=O)cc1OC (stereo not given) 40.6

###

quantity.measured: pIC50
In simple prose, pIC50 is minus the logarithm base ten of a concentration in moles per litre.

Return reported pIC50 for target or system Acetylcholinesterase (Electrophorus electricus, UniProt O42275), item CC(=O)c1cc2ccc(OCCCn3cc(CNC(=O)CCCCC4CCSS4)nn3)cc2oc1=O (centres undefined) . 4.26

Find the measured pIC50 of CCOC(=O)c1cc2ccc(OCCCCCn3cc(CNC(=O)CCCCC4CCSS4)nn3)cc2oc1=O (centres undefined) with Acetylcholinesterase (Electrophorus electricus, UniProt O42275) as test system. 4.22

Name the recorded pIC50 of CCOC(=O)c1cc2ccc(OCCCn3cc(CNC(=O)CCCCC4CCSS4)nn3)cc2oc1=O (centres undefined) , assay system Acetylcholinesterase (Electrophorus electricus, UniProt O42275). 4.26

For Acetylcholinesterase (Electrophorus electricus, UniProt O42275), give pIC50 of the listed compound: O=C(CCCCC1CCSS1)NCc1cn(CCCOc2ccc3cc(-c4ccc(Br)cc4)c(=O)oc3c2)nn1 (centres undefined) 4.33

###

Tested on: PC-12
Experiment: Neuroprotection against H2O2-induced cell death in rat PC12 cells assessed as cell viability at 10 uM preincubated for 3 hrs followed by H2O2 stimulation measured after 2 hrs by MTT assay (reference value: 25.2 to 41.8%)
Format: functional
Details: read-out: Activity
Please provide measured viability at 10 µM for the entries that follow.
Give just the number in %; leave the unit off.

Report measured viability at 10 µM on PC-12; entry: O=C(CCCCC1CCSS1)NCc1cn(CCCOc2ccc3cc(-c4ccc(Cl)cc4)c(=O)oc3c2)nn1 (stereo not given) 67.8

Tell me viability at 10 µM of O=C(CCCCC1CCSS1)NCc1cn(CCCOc2ccc3cc(C(=O)O)c(=O)oc3c2)nn1 (stereo not given) when tested on PC-12. 59.9

Report its viability at 10 µM with PC-12 as the test system: COc1ccc(-c2cc3ccc(OCCCCn4cc(CNC(=O)CCCCC5CCSS5)nn4)cc3oc2=O)cc1 (stereo not given) 48.6

Find viability at 10 µM for O=C(CCCCC1CCSS1)NCc1cn(CCCCOc2ccc3ccc(=O)oc3c2)nn1 (stereo not given) on PC-12 and write it down. 65.1

Check PC-12 data and give viability at 10 µM for O=C(CCCCC1CCSS1)NCc1cn(CCCCOc2ccc3cc(-c4ccc(Cl)cc4)c(=O)oc3c2)nn1 (stereo not given) . 61.8

###

Answer each item with its documented viability at 10 µM.
Tested on: PC-12
Assay: Neuroprotection against H2O2-induced cell death in rat PC12 cells assessed as cell viability at 10 uM preincubated for 3 hrs followed by H2O2 stimulation measured after 2 hrs by MTT assay (reference value: 25.2 to 41.8%)
Type: functional
Conditions: read-out: Activity
Give just the numeric value; % need not be written.

Give viability at 10 µM for the following compound: O=C(CCCCC1CCSS1)NCc1cn(CCCOc2ccc3cc(-c4ccc(Cl)c(Cl)c4)c(=O)oc3c2)nn1 (centres undefined) 49.6

Answer with the recorded viability at 10 µM of O=C(CCCCC1CCSS1)NCc1cn(CCCCOc2ccc3cc(-c4ccc(Cl)c(Cl)c4)c(=O)oc3c2)nn1 (centres undefined) only. 58.9

Specify reported viability at 10 µM for the compound shown: O=C(CCCCC1CCSS1)NCc1cn(CCCCOc2ccc3cc(-c4ccc(Br)cc4)c(=O)oc3c2)nn1 (centres undefined) 42.6

Supply reported viability at 10 µM belonging to this compound: COc1ccc(-c2cc3ccc(OCCCCCn4cc(CNC(=O)CCCCC5CCSS5)nn4)cc3oc2=O)cc1OC (centres undefined) 50.5
